Record form. Attribute: Helicity (%). Fill in for each entry.
ASSAY_SUMMARY: CD spectroscopy and thermal denaturation of chimeric N-trimers
Type: physicochemical
CONDITION_PARAMETERS: CD, PBS pH 7.4, 10 μM peptide
Bridge positions count the residues as written; N and C are the ends. I, II: the chains in the order shown.
Numbers only, in %.

SUBSTANCE | Helicity (%)
I: Ac-IKKKIEAIEKAIEAQQHLLQLTVWGIKQLQARIL-NH2 / II: Ac-IKKKIEAIEKAIEAQQHLLQLTVWGIKQLQARIL-NH2 / III: Ac-IKKKIEAIEKAIEAQQHLLQLTVWGIKQLQARIL-NH2 (amide I:4-II:9, I:9-III:4, II:4-III:9) [(IZ10N24N)3] | 100

Here's the next entry for you.
The measured Helicity (%) associated with I: Ac-IKKKIEAIEKLLQLTVWGIKQLQARILAVERYLK-NH2 / II: Ac-IKKKIEAIEKLLQLTVWGIKQLQARILAVERYLK-NH2 / III: Ac-IKKKIEAIEKLLQLTVWGIKQLQARILAVERYLK-NH2 (amide I:4-II:9, I:9-III:4, II:4-III:9) [(IZ10N24C)3] reads 100
